From: the supplement of paper PMC12338614

B1: library; numbered along this chain (parent)
chain: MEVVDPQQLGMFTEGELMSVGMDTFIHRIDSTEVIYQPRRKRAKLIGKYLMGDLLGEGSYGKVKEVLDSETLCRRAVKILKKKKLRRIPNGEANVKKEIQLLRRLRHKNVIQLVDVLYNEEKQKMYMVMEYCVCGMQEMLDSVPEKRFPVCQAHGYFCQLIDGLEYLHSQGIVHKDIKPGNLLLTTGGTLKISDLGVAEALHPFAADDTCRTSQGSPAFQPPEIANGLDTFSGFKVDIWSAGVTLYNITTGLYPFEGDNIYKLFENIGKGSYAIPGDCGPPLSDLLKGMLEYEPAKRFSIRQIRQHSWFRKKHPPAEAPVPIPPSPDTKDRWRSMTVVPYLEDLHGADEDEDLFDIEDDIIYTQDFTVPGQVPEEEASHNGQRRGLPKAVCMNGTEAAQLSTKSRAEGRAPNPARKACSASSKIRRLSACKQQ

Variants of: B1
assay: STK11 functional score (HeLa growth suppression), rescaled enrichment; synonymous median = 1, nonsense median = 0 (normalised score)
condition: with HeLa; variant type: missense
result type: STK11 functional score

S216E | -0.148
L55H | 1.43
H202V | 1.27
L228R | 1.68
F255D | 0.348

Note: attention shifts to another entry.
Which STK11 functional score value belongs to `R75M` ?
0.00187
